Source listed as patent US20130217664A1.

Below: a set of entries, each annotated with reported IC50.
Biological target: human JAK1 (Homo sapiens)
Construct: catalytic domain, amino acids 866-1154; catalog number PV4774
Sequence (P23458 866-1154): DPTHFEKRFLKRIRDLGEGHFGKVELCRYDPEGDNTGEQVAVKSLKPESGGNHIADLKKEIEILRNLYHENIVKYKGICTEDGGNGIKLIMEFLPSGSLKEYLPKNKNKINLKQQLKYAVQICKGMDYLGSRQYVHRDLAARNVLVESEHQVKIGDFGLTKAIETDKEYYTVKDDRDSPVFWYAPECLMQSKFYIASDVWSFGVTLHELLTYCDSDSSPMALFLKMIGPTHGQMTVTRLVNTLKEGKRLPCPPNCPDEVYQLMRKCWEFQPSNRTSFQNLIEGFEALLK
Assay: JAK1 inhibition assay (polyGT substrate / Ulight-JAK1 peptide)
Conditions: recombinant human JAK1 catalytic domain; polyGT or Ulight-JAK1 peptide assay

Solved cases (3 shown):
{"Molecule": "CN(c1cc2c(cn1)ncn2C)c1ccc(C2CN(C(=O)N3CCOCC3)C2)cc1OC(F)F", "IC50": "501 to 1000 nM"}
{"Molecule": "Cc1ccc(OCc2ccc(C#N)nc2)cc1N(C)c1cc2c(cn1)ncn2C", "IC50": "0.01 to 100 nM"}
{"Molecule": "COc1ccc(COc2ccc(C)c(N(C)c3cc4c(cn3)ncn4C)c2)cc1", "IC50": "101 to 500 nM"}

Please provide the recorded IC50 for `CCNC(=O)NCc1ccc(N(C)c2cc3c(cn2)ncn3C)c(CC)c1` , tested on human JAK1 (Homo sapiens).
0.01 to 100 nM

Provide value of IC50 for this record tested with human JAK1 (Homo sapiens): `CCc1cc(CNS(=O)(=O)CC(F)(F)F)ccc1N(C)c1cc2c(cn1)ncn2C`
0.01 to 100 nM
